Assay Protocol: Selectivity index, ratio of IC50 for rat L6 cells to IC50 for Plasmodium falciparum K1
Format: toxicity, cell-based
Test Context: read-out: Ratio IC50
Could you please report measured selectivity ratio for the items listed next?
# respond with the number and nothing more

Task: Param item = CCN(CC)CCCC(C)Nc1ccnc2cc(Cl)ccc12 (configuration not stated) ; retrieve measured selectivity ratio.
Result: 327

Task: Also CCCC(=O)c1ccc2c(c1)/C(=C1\C(=O)N([C@@H]3O[C@H](COC(C)=O)[C@@H](OC(C)=O)[C@H](OC(C)=O)[C@H]3OC(C)=O)c3ccc(Br)cc31)C(=O)N2 ?
Result: 39.9

---

Assay Protocol: Selectivity index, ratio of IC50 for rat L6 cells to IC50 for Trypanosoma cruzi Tulahuen C2C4 trypomastigotes
Assay type: toxicity, cell-based
Test Context: read-out: Ratio IC50
Measurement Name: selectivity ratio

Task: Give its selectivity ratio value. Item: O=C(Cn1ccnc1[N+](=O)[O-])NCc1ccccc1 [BENZNIDAZOLE]
Result: > 135
